experiment: Cytotoxicity against mouse BA/F3 cells expressing NPM-ALK fusion gene assessed as growth inhibition; assay type: functional, cell-based; details: BaF3
Observed property: pIC50
Scale note: pIC50 = -log10(concentration in M).

Incoming: Which pIC50 is reported for this molecule? Cc1cc(Nc2ncc(Cl)c(Nc3ccccc3S(=O)(=O)C(C)C)n2)c(OC(C)C)cc1C1CCNCC1
Outgoing: 7.59

----------
test: Oral bioavailability in rat; type: ADME, organism-based; conditions: in vivo
Observed property: bioavailability

Incoming: Endpoint output: bioavailability of Cc1cc(Nc2ncc(Cl)c(Nc3ccccc3S(=O)(=O)C(C)C)n2)c(OC(C)C)cc1C1CCNCC1 . Value?
Outgoing: > 50%

Just for reference, ChEMBL document CHEMBL2401656 is where these values come from.
